Listing of recorded pIC50 by entry.
Assayed system: recombinant protein containing the human ENPP1 enzymatic domain (Homo sapiens, UniProt P22413)
Construct: recombinant protein containing the human ENPP1 enzymatic domain
Assay comment: ENPP1 Enzymatic Inhibition Assay (2′3′-cGAMP substrate, AMP-Glo luminescence)
Condition label: 1 nM ENPP1, 20 uM 2′3′-cGAMP substrate, 30 minutes at 37° C.
pIC50: −log10 of the molar value.
Metric name: pIC50

# Molecule, Observed
measured = [
    ("CCN=S(N)(=O)c1ccc(Oc2ccnc3cc(OC)ccc23)cc1 (centres unmarked)", "7.00 to 8.00"),
    ("COc1ccc2c(Oc3ccc(S(N)(=O)=NCCOc4cccnc4)cc3)ccnc2c1 (centres unmarked)", "> 8.00"),
    ("COc1ccc2c(Oc3ccc(S(N)(=O)=NCCOc4ccncc4)cc3)ccnc2c1 (centres unmarked)", "> 8.00"),
    ("COc1ccc2c(Oc3ccc(S(N)(=O)=NC[C@@H]4CCCN4C(=O)OC(C)(C)C)cc3)ccnc2c1 (some centres unmarked)", "7.00 to 8.00"),
    ("COc1ccc2c(Oc3ccc(S(N)(=O)=NCc4ccccn4)cc3)ccnc2c1 (centres unmarked)", "7.00 to 8.00"),
    ("CN=S(N)(=O)c1ccc(CNc2ccnc3cc(OC)ccc23)cc1 (centres unmarked)", "< 7.00"),
    ("COc1ccc2c(Oc3ccc(S(N)(=O)=NCc4cccnc4)cc3)ccnc2c1 (centres unmarked)", "7.00 to 8.00"),
    ("COc1ccc2c(Oc3ccc(S(N)(=O)=NCc4ccncc4)cc3)ccnc2c1 (centres unmarked)", "7.00 to 8.00"),
]

----------
Assayed system: recombinant protein containing the human ENPP1 enzymatic domain (Homo sapiens, UniProt P22413)
Construct: recombinant protein containing the human ENPP1 enzymatic domain
Sequence (P22413 191-591 limits assumed): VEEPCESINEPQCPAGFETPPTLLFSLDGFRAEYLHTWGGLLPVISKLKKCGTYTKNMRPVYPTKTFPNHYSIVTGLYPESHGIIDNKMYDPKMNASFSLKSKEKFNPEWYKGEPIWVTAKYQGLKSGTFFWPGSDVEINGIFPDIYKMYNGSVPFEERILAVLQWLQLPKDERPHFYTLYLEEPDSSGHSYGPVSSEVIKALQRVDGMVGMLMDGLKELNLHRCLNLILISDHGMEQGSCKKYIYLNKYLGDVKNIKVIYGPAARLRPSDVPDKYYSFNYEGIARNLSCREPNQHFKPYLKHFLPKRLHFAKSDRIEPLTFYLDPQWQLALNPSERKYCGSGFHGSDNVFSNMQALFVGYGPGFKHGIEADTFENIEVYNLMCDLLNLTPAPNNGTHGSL
Assay comment: ENPP1 Enzymatic Inhibition Assay (2′3′-cGAMP substrate, AMP-Glo luminescence)
Condition label: 1 nM ENPP1, 20 uM 2′3′-cGAMP substrate, 30 minutes at 37° C.
pIC50: −log10 of the molar value.
Metric name: pIC50

# Molecule, Metric name, Observed
records = [
    ("COc1ccc2c(Oc3ccc(S(N)(=O)=NCCOc4ccccn4)cc3)ccnc2c1 (stereo not shown)", "pIC50", "> 8.00"),
    ("COc1ccc2c(Oc3ccc(S(N)(=O)=NCC(=O)O)cc3)ccnc2c1 (stereo not shown)", "pIC50", "7.00 to 8.00"),
    ("COc1ccc2c(Nc3ccc(S(=N)(=O)N(C)C)cc3)ncnc2c1 (stereo not shown)", "pIC50", "7.00 to 8.00"),
    ("COc1ccc2c(Oc3ccc(S(N)(=O)=Nc4ccc(-c5ccncc5)cc4)cc3)ccnc2c1 (stereo not shown)", "pIC50", "7.00 to 8.00"),
]

----------
Assayed system: recombinant protein containing the human ENPP1 enzymatic domain (Homo sapiens)
Construct: recombinant protein containing the human ENPP1 enzymatic domain
Assay comment: ENPP1 Enzymatic Inhibition Assay (2′3′-cGAMP substrate, AMP-Glo luminescence)
Condition label: 1 nM ENPP1, 20 uM 2′3′-cGAMP substrate, 30 minutes at 37° C.

# Compound, IC50
records = [
    ("COc1ccc2c(Oc3ccc(S(=N)(N)=O)cc3)ccnc2c1 (centres unmarked)", "10 to 100 nM"),
    ("COc1ccc2c(Oc3ccc(S(N)(=O)=NCCc4ccccc4)cc3)ccnc2c1 (centres unmarked)", "10 to 100 nM"),
    ("COc1ccc2c(Oc3ccc(S(=N)(=O)N(C)C)cc3)ccnc2c1 (centres unmarked)", "> 100 nM"),
    ("COc1ccc2c(Oc3ccc(S(N)(=O)=NCC(C)(C)O)cc3)ccnc2c1 (centres unmarked)", "< 10 nM"),
    ("COc1ccc2c(Oc3ccc(S(N)(=O)=NC[C@H]4CCCN4)cc3)ccnc2c1 (some centres unmarked)", "10 to 100 nM"),
    ("CN=S(N)(=O)c1ccc(Nc2ncnc3cc(OC)ccc23)cc1 (centres unmarked)", "< 10 nM"),
    ("COc1ccc2c(Oc3ccc(S(=N)(=O)NC[C@@H](O)CO)cc3)ccnc2c1 (single isomer, unassigned)", "< 10 nM"),
    ("COc1ccc2c(Oc3ccc(S(N)(=O)=NCc4ccccc4)cc3)ccnc2c1 (centres unmarked)", "< 10 nM"),
    ("COc1ccc2c(Oc3ccc(S(N)(=O)=NCC(C)O)cc3)ccnc2c1 (single isomer, unassigned)", "< 10 nM"),
    ("COc1ccc2c(Oc3ccc(S(N)(=O)=NC[C@H]4CCCN4C(=O)OC(C)(C)C)cc3)ccnc2c1 (some centres unmarked)", "10 to 100 nM"),
    ("COc1ccc2c(Oc3ccc(S(N)(=O)=NC4CC4)cc3)ccnc2c1 (centres unmarked)", "10 to 100 nM"),
    ("COc1ccc2c(Oc3ccc(S(N)(=O)=NCC4CCC4)cc3)ccnc2c1 (centres unmarked)", "< 10 nM"),
    ("COc1ccc2c(Oc3ccc(S4(=O)=NC(=O)CN4)cc3)ccnc2c1 (centres unmarked)", "> 100 nM"),
    ("CNS(=N)(=O)c1ccc(Oc2ccnc3cc(OC)ccc23)cc1 (centres unmarked)", "10 to 100 nM"),
    ("COc1ccc2c(Oc3ccc(S(N)(=O)=NCc4nccn4C)cc3)ccnc2c1 (centres unmarked)", "< 10 nM"),
    ("COc1ccc2c(Oc3ccc(S(=N)(=O)N4CCN(C)CC4)cc3)ccnc2c1 (centres unmarked)", "10 to 100 nM"),
    ("CCS(=N)(=O)c1ccc(Oc2ccnc3cc(OC)ccc23)cc1 (centres unmarked)", "< 10 nM"),
    ("COc1ccc2c(Oc3ccc(S(N)(=O)=NCCN)cc3)ccnc2c1 (centres unmarked)", "10 to 100 nM"),
    ("COc1ccc2c(Oc3ccc(S(=N)(=O)NC[C@H](O)CO)cc3)ccnc2c1 (single isomer, unassigned)", "< 10 nM"),
    ("COc1ccc2c(Oc3ccc(S(N)(=O)=NCC4CC4)cc3)ccnc2c1 (centres unmarked)", "< 10 nM"),
    ("COc1ccc2c(Oc3ccc(S(N)(=O)=NC4(c5ccccn5)CC4)cc3)ccnc2c1 (centres unmarked)", "< 10 nM"),
    ("COc1ccc2c(Oc3ccc(S(=N)(=O)N4CCOCC4)cc3)ccnc2c1 (centres unmarked)", "> 100 nM"),
    ("COc1ccc2c(Oc3ccc(S(N)(=O)=NCc4ccc(-c5ccncc5)cc4)cc3)ccnc2c1 (centres unmarked)", "< 10 nM"),
    ("COc1ccc2c(Oc3ccc(S(N)(=O)=NCc4ncco4)cc3)ccnc2c1 (centres unmarked)", "< 10 nM"),
    ("COc1ccc2c(Oc3ccc(S(N)(=O)=NCCOc4ccccc4)cc3)ccnc2c1 (centres unmarked)", "10 to 100 nM"),
    ("COc1ccc2c(Oc3ccc(S(N)(=O)=NCCNC(=O)OC(C)(C)C)cc3)ccnc2c1 (centres unmarked)", "10 to 100 nM"),
]
